# System: SF-268 CNS
# protocol.summary: NCI tumour cell line growth inhibition, 48 h
reported.property: TGI

Observe how each entry below is paired with its result.
compound: Clc1ccc(CCn2ccc3ccccc32)c(Cl)c1
result: > 100 µM
--
compound: O=c1n(CCO)nc2n1CCCN2
result: > 100 µM
--
compound: NC(N)=NS(=O)(=O)c1ccc(NC(=O)c2c3ccccc3nc3ccccc23)cc1
result: > 100 µM
--
compound: C[N+](C)([O-])Cc1cccc(NC(=O)c2ccc(C(=O)Nc3cccc(C[N+](C)(C)[O-])c3)cc2)c1
result: > 100 µM
--
compound: COc1cc2c(cc1C)NC(=O)/C2=C/c1c(Cl)n(C)c2ccccc12
result: 16.2 µM
--
compound: O=C(CCc1nnc2s/c(=C\c3ccc(Cl)cc3Cl)c(=O)n12)Nc1cc(Cl)c(Cl)cc1Cl
result: > 100 µM
--
compound: C=CC(C)(C)c1cc([C@@H]2COc3cc(O)ccc3C2=O)c(O)c(OC)c1OC
result: 51 µM
--
compound: CC/C(=C(\c1ccccc1)c1ccc(OCC[N+](C)(C)C)cc1)c1ccccc1
result: 32.4 µM
--
compound: Cn1c(N)c(N=Nc2ccc(S(N)(=O)=O)cc2)c(=O)n(C)c1=O
result: > 100 µM
--
compound: O=S(=O)(N1CCCCN(S(=O)(=O)C(F)(F)F)CCCN(S(=O)(=O)C(F)(F)F)CCCN(S(=O)(=O)C(F)(F)F)CCCCN(S(=O)(=O)C(F)(F)F)CCCN(S(=O)(=O)C(F)(F)F)CCC1)C(F)(F)F
result: > 100 µM

# ---- query compound ----
[Q] Entry Nc1c2ccccc2nc2ccc(C(=O)Nc3ccc(S(N)(=O)=O)cc3)cc12 : reported TGI = ?
[A] > 100 µM

* * *

TGI values, listed per item
# System: 786-0 renal
# protocol.summary: NCI tumour cell line growth inhibition, 48 h
Please give a number only; it is taken to be in µM.

smiles.str: C=C1C(=O)O[C@H]2[C@H]1CC/C(Cn1cc(CNC(=O)c3cc4ccccc4[nH]3)nn1)=C\CC[C@@]1(C)O[C@@H]21
TGI, µM: 9.61

Now for the molecule whose TGI we want.
[Q] // fetch 786-0 renal TGI for Cc1nn(-c2ccccc2)c2ncc3c(c12)C(=O)N(Cc1ccccc1)C3=O
[A] 5.12

* * *

# Tested on: UACC-257 melanoma
# protocol.summary: NCI tumour cell line growth inhibition, 48 h
reported.property: TGI (µM)
Number only, in µM; omit the unit.

molecule: CC1CCCC2(O1)OC1CC(=O)OC1C1=C2C(=O)c2ccccc2C1=O (stereo not given)
target.or.test.system: UACC-257 melanoma
TGI (µM): 3.95

Query molecule follows.
[Q] Sample CN(C)c1ccc(/C=C/C(=O)c2ccc(Nc3nc(Nc4ccc(F)cc4)nc(Nc4ccc(Cl)cc4)n3)cc2)cc1 — what was its TGI?
[A] 54.7

* * *

# System: SF-268 CNS
# protocol.summary: NCI tumour cell line growth inhibition, 48 h
Catalogue of compounds with associated TGI

Check out these entries, answers already filled in.
compound: CC(C)(C)OC(=O)N(CCCN)CCCCN(CCCN)C(=O)OC(C)(C)C
TGI: > 100 µM
//
compound: CC(C)CCC[C@@H](C)[C@H]1CC[C@H]2[C@@H]3CC=C4CC(OCCCCN(O)CCCSC5OC(CO)C(O)C(O)C5O)CC[C@]4(C)[C@H]3CC[C@]12C (some centres undefined)
TGI: > 100 µM
//
compound: COc1cc2c(cc1Nc1nc(Nc3ccsc3C(N)=O)c3cc[nH]c3n1)N(C(=O)CN(C)C)CCC2
TGI: 10.6 µM
//
compound: CCOc1c(OC)cc(CNNc2nccs2)cc1OC
TGI: > 100 µM
//
compound: Cc1ccc(-n2cc(-c3ccc(Cl)cc3)c3c(NNC(=S)NCc4ccccc4)ncnc32)cc1
TGI: > 100 µM
//
compound: CCC1(CC)C(=O)N(C(=O)c2ccc(Cl)cc2)N(C(=O)c2ccccc2Cl)C1=O
TGI: > 100 µM
//
compound: CCN(CC)CC(C(=O)Nc1c(C)cccc1C)/C(C)=N/NC(N)=S (centres undefined)
TGI: > 100 µM
//
compound: CN1C(=N\S(=O)(=O)c2ccc(Cl)cc2)/C(=N/N=P(c2ccccc2)(c2ccccc2)c2ccccc2)c2ccccc21
TGI: > 100 µM

[Q] Which TGI value belongs to C=C1C(=O)O[C@H]2[C@H]1CC/C(Cn1cc(CNC(=O)c3cc4ccccc4[nH]3)nn1)=C\CC[C@@]1(C)O[C@@H]21 ?
[A] 22.5 µM

* * *

# System: CAKI-1 renal
# protocol.summary: NCI tumour cell line growth inhibition, 48 h
reported.property: TGI

Examples with answers:
molecule: Cc1c2cccc-2c(N(C)C)cc2c1[nH]c1ccccc12
result: 32.7 µM

molecule: C=CCn1c(=O)c(-c2ccccc2)c(O)c2ccccc21
result: > 100 µM

[Q] # value lookup — system CAKI-1 renal, readout TGI, item N#Cc1c(C#N)c(-c2ccco2)n(/N=C/c2ccco2)c1N
[A] > 100 µM

[Q] Now consider COc1ccc2[nH]c3c(C)c4ccnc(NCCCN(C)CCCNC(=O)NCCCN(C)CCCNc5nccc6c(C)c7[nH]c8ccc(OC)cc8c7c(C)c56)c4c(C)c3c2c1 .
[A] 3.34 µM

[Q] Cc1ccc(S(=O)(=O)c2ccccn2)cc1 ?
[A] > 100 µM

[Q] Cc1ccc(CCNC(=S)SCC(NC(=O)CCC(N)C(=O)O)C(=O)NCC(=O)O)cc1 (stereo not given) , same question.
[A] 3.44 µM

[Q] Try COC(=O)c1cc(CNCCc2c[nH]c3ccccc23)on1 next.
[A] > 100 µM

[Q] Try the molecule COc1cccc(C(=O)C(O)c2cccc(OC)c2OC)c1OC (stereo not given)
[A] > 100 µM

[Q] # iterate: O=[N+]([O-])c1ccc(-c2ccc(C3=Nn4c(nnc4-c4ccc(Cl)cc4)SC3)o2)cc1
[A] > 100 µM

[Q] Queued: COc1cc2c(cc1C)NC(=O)/C2=C/c1c(Cl)n(C)c2ccccc12
[A] 24.4 µM

[Q] Also need Cc1ccc(-n2cc(-c3ccc(Cl)cc3)c3c(NNC(=S)NCc4ccccc4)ncnc32)cc1 , thanks.
[A] 29.1 µM

[Q] Please do the same for COc1c(C)cnc(Cn2cnc3c(Cl)nc(N)nc32)c1C as well.
[A] > 100 µM

[Q] Note, next up: CCCCCCn1c(=N)n(CC(O)COc2cccc(C)c2)c2ccccc21 (stereo not given)
[A] 10.6 µM

[Q] Now consider NC(=O)NOCC1NC(=O)NC1=O (stereo not given) .
[A] > 100 µM

[Q] Please do the same for Cc1cccc2ns[s+]c12 as well.
[A] > 100 µM

[Q] Ok, now Oc1ccc(-c2nc(-c3ccc4oc5ccc(-c6[nH]c(-c7ccc(O)cc7)nc6-c6ccccc6)cc5c4c3)c(-c3ccccc3)[nH]2)cc1
[A] 41.7 µM

[Q] Try this molecule too: COC(=O)C1CCC2(CC1)NC(=O)NC2=O (stereo not given)
[A] > 100 µM

* * *

Catalogue of compounds with associated TGI
# Test system: K-562 leukemia
# protocol.summary: NCI tumour cell line growth inhibition, 48 h

Guide cases for TGI, answers given:
smiles.str: C=CC(=O)N1CC[C@@H](Oc2nc(Nc3ccc(N4CCC(N5CCN(C)CC5)CC4)cc3)c(C(N)=O)nc2CC)C1
result: > 100 µM
--
smiles.str: Cc1ccc(-c2c(C#N)c(O)n(NS(=O)(=O)c3ccccc3)c(=O)c2C#N)cc1
result: > 100 µM
--
smiles.str: c1ccc(C2(c3cc4ccccc4[nH]3)OCCO2)cc1
result: > 100 µM
--
smiles.str: CCCCCCCCCCCCCCCCCc1nc(C#N)c(N)o1
result: > 100 µM

[Q] What measured TGI goes with O=C(C(=O)n1ccc2ccccc21)c1c[nH]c2ccccc12 ?
[A] > 10 µM

* * *

# System: SF-295 CNS
# protocol.summary: NCI tumour cell line growth inhibition, 48 h; in the data active means GI50 below about 0.43 µM; inactive means the rest
Write down one outcome, taken from yes (active), no (inactive)

Reference set (4 entries):
compound: COc1ccc(C2CC(c3ccc(OC)c(OC)c3)=NN2C(=O)c2cc(OC)c(OC)c(OC)c2)cc1 (centres undefined)
assigned.class: yes

compound: COc1cc2c(c(OC)c1OC)-c1c(c3ccc([N+](=O)[O-])cc3c(=O)n1CCCN=[N+]=[N-])C2=O
assigned.class: no

compound: CN1CCN(Cc2ccc(NC(=O)c3cncc(C#Cc4c(N)ncc5ccc(F)cc45)c3)cc2C(F)(F)F)CC1
assigned.class: no

compound: COc1c(C)cnc(Cn2cnc3c(Cl)nc(N)nc32)c1C
assigned.class: yes

[Q] Please let me know the test result on file for COC(=O)[C@@H](C)C[C@H](Cc1ccccc1)NC(=O)c1cccc([C@@H](C[C@H](C(C)C)N(C)C(=O)[C@@H](NC(=O)[C@H]2CCCCN2C)C(C)C)OC(C)=O)n1 .
[A] yes

[Q] What about this compound? CN(C)CCCn1c2c(c3ccc([N+](=O)[O-])cc3c1=O)C(=O)c1ccccc1-2
[A] no

[Q] Follow-up item: C#Cc1cccc(NC(=O)Nc2cccc(NC(=O)CCl)c2)c1
[A] no

[Q] And for Nc1cc(N)c2nc(-c3ccccc3)c(Sc3ccc(F)cc3)nc2c1 ?
[A] no

[Q] Moving on to O=C(CCc1nnc2s/c(=C\c3ccc(Cl)cc3Cl)c(=O)n12)Nc1cc(Cl)c(Cl)cc1Cl
[A] no
